# Test system: SF-295 CNS
# method summary: NCI tumour cell line growth inhibition, 48 h
# Lookup of reported TGI keyed by entry

// below: answered molecules
Would you kindly share the measured TGI for `Cc1c(C)c2cc3c(=O)c(CCl)coc3c(C)c2oc1=O` ?
> 100 µM

What TGI value was documented for this molecule, `COc1ccc(C2=C(OC(C)=O)c3cccn3-c3ccc(Cl)cc3S2)cc1` ?
> 10 µM

I'd like to know its TGI. The molecule in question is `O=C1OC(c2ccc([N+](=O)[O-])cc2)=N/C1=C\c1ccc(Cl)cc1`
> 100 µM

What value of TGI has been recorded for this entry: O=CNC(Cc1cnc[nH]1)C(=O)O (stereo not given)
> 100 µM

Shifting focus to the molecule that follows.
Would you kindly share the measured TGI for `COc1ccc(CCN2CCCn3c2nc2ccccc2c3=O)cc1` ?
> 54.2 µM

---

Recorded GI50 by entry
# System: IGROV1 ovarian
# method summary: NCI tumour cell line growth inhibition, 48 h

Endpoint output: GI50 of `O=C1c2c(c3c4cc(F)ccc4oc3c3[nH]c4ccccc4c23)C(=O)N1O` . Value?
0.46 µM

Sample `CC(C)(C)OC(=O)NCCCCCCCCCn1c2c(c3ccccc3c1=O)C(=O)c1ccccc1-2` — what was its GI50?
36.1 µM

If you can, please state the reported GI50 value of `Nc1[nH]nc(Nc2ccccc2)c1-c1nc2ccccc2s1` .
2.58 µM

Look up GI50: `COc1cc(/C=C/C(=O)c2c(C)n([O-])c3ccccc3[n+]2=O)cc(OC)c1OC`
3.99 µM

Okay, now this molecule:
For `COc1ccc(C2=Nn3c(nnc3-c3ccc(F)c(Cl)c3)SC2)cc1` , what is its reported GI50?
> 100 µM

---

# System: HT29 colon
# method summary: NCI tumour cell line growth inhibition, 48 h
# key: entry, value: TGI

// solved cases for TGI follow
Bench note: what TGI did `COCN1COCN(C)C1=O` show?
> 100 µM

Please look up its TGI: `CN(C)Cc1ccc(NC(=O)c2cncc(C#Cc3cnc(N)c4ncccc34)c2)cc1C(F)(F)F`
1.86 µM

Value lookup for TGI; key = `O=C(CCCc1cccc2[nH]c3c(c12)CN(Cc1ccccc1)CC3)c1ccc(F)cc1`
> 45.8 µM

// query TGI value for entry `Nc1nc(N)nc(CCCCc2nc(N)nc(N)n2)n1`
> 100 µM

More entries:
Need TGI of CCOP(=O)(OCC)C(c1ccc(F)cc1)N(C(=O)NC(F)(F)F)c1ccc(F)cc1 (configuration not stated) , thanks.
> 100 µM

I'd like to know its TGI. The compound in question is `CS(=O)(=O)OCCN(CCOS(C)(=O)=O)c1ccc(C=Nc2ccc(-c3csc(Cc4ccccc4)n3)cc2)c(Cl)c1`
64.5 µM

TGI lookup needed for CC1(Cl)C(=O)NC(=O)N([C@H]2C[C@H](O)[C@@H](CO)O2)C1N=[N+]=[N-] (some centres not stated) , thanks.
> 100 µM

# input compound: S=C1SCC2CCCN12 (configuration not stated) ; wanted: its TGI
> 100 µM

Quick one: TGI for COc1ccc(-c2cc(-c3ccc(C)cc3)n(C3OC(COC(C)=O)C(OC(C)=O)C(OC(C)=O)C3OC(C)=O)c(=S)c2C#N)cc1 (configuration not stated) ?
> 100 µM

Data request, read-out TGI, for `Cc1nc2c(Cl)cc(Cl)cc2c2c1CCO2`
> 100 µM

Fill blank: measured TGI of the compound C=CC[P@]1(=O)O[C@H](c2ccccc2)C(C)N1C(C)C (some centres not stated) is ____.
> 100 µM

Item under review: `COC(=O)[C@@]12CSC[C@]1(C(=O)OC)N[C@@H](c1ccccc1O)C2` . Reported TGI?
> 100 µM

---

Entries annotated with measured TGI
# System: EKVX NSCLC
# method summary: NCI tumour cell line growth inhibition, 48 h

Check out these entries, answers already filled in.
# TGI lookup, item `O=C(O)CCCN1C(=O)/C(=C/C(Cl)=C/c2ccccc2)SC1=S`
5.91 µM

Item under review: `C/C(Cc1ccc2c(c1)OCO2)=N\N=c1\sc2ccccc2n1C` . Reported TGI?
> 100 µM

Quick one: TGI of `O=c1c(NCc2ccccc2)c(C2(c3ccccc3F)SCCCS2)c1=O` ?
> 100 µM

Looking for the measured TGI of `O=C1C=C(NCCc2ccc(O)c([N+](=O)[O-])c2)C(=O)c2[nH]cnc21` , can you help?
72.2 µM

Endpoint output: TGI of `COc1cc(/C=C/C(=O)CC(=O)/C=C/c2cc(C)c(O)c(OC)c2)cc(C)c1O` . Value?
> 100 µM

***
GET /values?readout=TGI&item= N#CC1=C(N)NC(=O)C(C#N)C12Nc1ccccc1S2 (stereo unspecified)
> 100 µM

Any idea what TGI was measured for N=C1OC(CN2CCN(c3ccccc3)CC2)CN1C(=O)Nc1ccccc1 (stereo unspecified) ?
> 100 µM

Quick check: TGI of `O=C(CCN1CCCC1)Nc1ccc2c(Nc3ccc(F)cc3)c3ccccc3nc2c1` ?
4.69 µM

I'd like to know its TGI. The molecule in question is `N=c1oc2cc(O)ccc2cc1C(=O)Nc1ccccn1`
> 100 µM

Please report the recorded TGI for `Cc1c(C)c2cc3c(=O)c(CCl)coc3c(C)c2oc1=O` .
> 100 µM

Can you look up the measured TGI of `NCCCn1c(Cl)nc2ccccc21` for me?
> 100 µM

---

Here the recorded TGI is given for each entry.
# System: MDA-MB-231 breast
# method summary: NCI tumour cell line growth inhibition, 48 h
Your answer is read as µM, so omit the unit and give the number.

The following compounds have reported results that may help.
Query the reported TGI for MDA-MB-231 breast; item: `CN(C)Cc1ccc(NC(=O)c2cncc(C#Cc3cnc(N)c4ncccc34)c2)cc1C(F)(F)F`
2.36

// map `O=C(CSSCC(=O)c1ccc(Cl)cc1)c1ccc(Cl)cc1` to recorded TGI (system: MDA-MB-231 breast)
24.2

Find TGI (MDA-MB-231 breast) for the entry `CN[C@@H](C)C(=O)N[C@H](C(=O)N1CCC[C@H]1c1nc(C(=O)c2ccc(F)cc2)cs1)C1CCCCC1`
20.6

Give recorded TGI with MDA-MB-231 breast for the following compound: CCN1C(=O)N(CC)C2C1NN=c1s/c(=C3\C(=O)Nc4ccccc43)c(=O)n12 (configuration not stated)
49.9

Now consider a different compound.
Short answer please: TGI, MDA-MB-231 breast, entry `COc1ccc2c(c1)/C(=C\c1c(Cl)nc3n1CCS3)C(=O)N2`
27.2

---

In this section, each of the compounds is paired with its reported TGI.
# Tested on: U251 CNS
# method summary: NCI tumour cell line growth inhibition, 48 h
Provide the reading as a plain figure in µM.

Need TGI of `COc1ccc(-c2cn(C)c3c2-n2cccc2C3=O)cc1O` , thanks.
29.8

Data request, read-out TGI, for `CCN(CC)Cc1cc(N=Nc2c(O)ccc3c(N=Nc4ccc(O)c(CN(CC)CC)c4)c(O)ccc23)ccc1O`
15.5

Requested field: TGI. Item: `COC(=O)CNC(=O)C(=O)c1c(O)c(O)c(C(C)C)c2cc(C)c(-c3c(C)cc4c(C(C)C)c(O)c(O)c(C(=O)C(=O)NCC(=O)OC)c4c3O)c(O)c12`
5.85

Now for the compound whose TGI we want.
State the recorded TGI for this entry: `O=C(Cn1c2ccc(Br)cc2c2nc3ccccc3nc21)NCc1ccccc1`
69.7

---

# Test system: HCC-2998 colon
# method summary: NCI tumour cell line growth inhibition, 48 h
value type: TGI

Known TGI results, listed for orientation:
Given `O=S(=O)(F)Cc1ccccc1` , state its recorded TGI.
> 100 µM

// TGI lookup, key: `CC(C)(C)C1=CC(=N/N=c2\scc(-c3ccccc3)n2Cc2ccccc2)C=C(C(C)(C)C)C1=O`
> 100 µM

Form field: reported TGI of CCN1C(=O)N(CC)C2C1NN=c1s/c(=C3\C(=O)Nc4ccccc43)c(=O)n12 (stereo not given)
31.7 µM

Reported TGI for `COc1ccccc1/C=C1\C(=O)N(C(=O)Cc2ccccc2)N=C1C` : what is it?
> 100 µM

Now for a further compound.
Record request: TGI value, item `O=C1c2ccccc2C(=O)N1c1ccc(Cc2ccc(N3C(=O)c4ccccc4C3=O)cc2)cc1`
> 100 µM

---

Reported TGI values for a set of compounds
# Test system: HT29 colon
# method summary: NCI tumour cell line growth inhibition, 48 h
Quick reminder: number only, in µM, skip the unit.

Fill in the blank: the reported TGI of `COC(=O)CNC(=O)C(=O)c1c(O)c(O)c(C(C)C)c2cc(C)c(-c3c(C)cc4c(C(C)C)c(O)c(O)c(C(=O)C(=O)NCC(=O)OC)c4c3O)c(O)c12` is ____.
5.36

Reported TGI, compound CCC1(O)C(=O)OCc2c1cc1n(c2=O)Cc2cc3cc4c(cc3nc2-1)OCO4 (centres undefined) : ____
19.9

Requested read-out: TGI. Entry: `N=c1oc2ccc3ccccc3c2cc1-c1nc2ccccc2c(=O)[nH]1`
39.5

New cases:
Which measured TGI value corresponds to COc1ccc(C2CC(c3sc(Nc4ccc(C)cc4)nc3C)=NN2)cc1 (centres undefined) ?
25.6

// provenance: PubChem BioAssay (NCI)
